# SYSTEM UNDER TEST: T1, GPR1, PathHunter β-Arrestin CHO cell line (human, UniProt P46091 1-355)
# T1 sequence (P46091 whole entry, species assumed, looked up): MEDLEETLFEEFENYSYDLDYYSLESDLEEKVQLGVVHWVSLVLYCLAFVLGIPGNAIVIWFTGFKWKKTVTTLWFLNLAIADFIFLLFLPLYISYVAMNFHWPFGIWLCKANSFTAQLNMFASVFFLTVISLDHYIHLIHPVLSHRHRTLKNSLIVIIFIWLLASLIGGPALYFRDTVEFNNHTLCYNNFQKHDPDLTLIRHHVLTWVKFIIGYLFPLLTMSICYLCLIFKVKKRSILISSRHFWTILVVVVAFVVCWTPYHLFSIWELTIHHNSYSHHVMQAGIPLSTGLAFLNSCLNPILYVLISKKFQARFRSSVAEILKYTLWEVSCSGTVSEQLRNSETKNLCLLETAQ
# TEST SUMMARY: cell-based or functional assay
EXPERIMENTAL READOUT: [EC50] (M), PathHunter β-Arrestin agonist

{"BINDER": "AGEDPHGYFLPGQFA [mouse chemerin C15 peptide]", "OBSERVED MEASUREMENT": "3.7e-06"}
{"BINDER": "AGEDPHSFYFPGQFA [human chemerin C15 peptide]", "OBSERVED MEASUREMENT": 0.017}
{"BINDER": "AGEDPHSFYFPGQFAF [human chemerin C16 peptide]", "OBSERVED MEASUREMENT": "2.1e-09"}
{"BINDER": "AGEDPHSFYFPGQFAFS [human chemerin C17 peptide]", "OBSERVED MEASUREMENT": "1.5e-09"}

Data credit: patent US20160136231A1
